Target: PIM1 transgenic cells (Ba/F3) (Homo sapiens)
Sequence (P11309 whole entry, change not shown): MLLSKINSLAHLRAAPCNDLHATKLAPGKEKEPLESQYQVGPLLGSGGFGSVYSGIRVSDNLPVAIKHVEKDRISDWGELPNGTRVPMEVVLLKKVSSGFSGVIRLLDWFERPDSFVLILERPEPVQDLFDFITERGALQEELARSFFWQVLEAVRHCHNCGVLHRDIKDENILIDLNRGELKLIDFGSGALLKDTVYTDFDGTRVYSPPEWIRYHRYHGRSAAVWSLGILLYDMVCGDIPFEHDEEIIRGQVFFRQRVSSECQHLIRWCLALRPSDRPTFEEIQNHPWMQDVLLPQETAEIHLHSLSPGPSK
Assay: Proliferation inhibitory effect on PIM1 transgenic cells
Format: cell-based, mouse
Conditions: proliferation inhibition, 72 hours, Cell Counting Kit-8, read-out: PIM1 IC50
Counter-ions that a name gives are not always drawn.
Items are presented alongside their recorded GI50.
Give just the number in µM; leave the unit off.

compound	unit	GI50
O=c1[nH]nc(-c2ccc(Cl)c(NC3CCNCC3)c2)o1 [Example 31, hydrochloride]	µM	3.3
Cc1c(F)cc(-c2n[nH]c(=O)o2)cc1N[C@@H](C)[C@H]1CC[C@H](N)CC1 [Example 172, dihydrochloride]	µM	0.049
CC(C)Oc1c(Cl)cc(-c2n[nH]c(=O)o2)cc1N[C@@H](C)C1CCNCC1 [Example 103, hydrochloride]	µM	0.12

// next item, GI50 requested
Incoming: What measured GI50 is associated with O=c1[nH]nc(-c2ccc(C(F)(F)F)c(NC[C@@H]3CCCNC3)c2)o1 [Example 54, hydrochloride] on PIM1 transgenic cells (Ba/F3) (Homo sapiens)?
Outgoing: 1.2

Value source: patent US20220024921A1
